Listed binders paired with reported Maximum Blocking
# System name: T1, biotinylated human IL-33 (human, UniProt O95760 112-270, biotin-labeled with EZ-LINK NHS-PEG4-Biotin)
# T1 construct: also called biotin-huIL-33
# T1 sequence (looked up): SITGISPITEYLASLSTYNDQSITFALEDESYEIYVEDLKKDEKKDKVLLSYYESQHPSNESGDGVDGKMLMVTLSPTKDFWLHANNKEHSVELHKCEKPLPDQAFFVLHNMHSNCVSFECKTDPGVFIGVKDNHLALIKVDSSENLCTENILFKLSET
# Protocol: competitive ELISA, biotin-huIL-33 to coated hST2-Fc
Property label: Maximum Blocking (%)

INSERT INTO assay_data (binder, units, endpoint_value) VALUES
  ('10C12.38.H6.87Y.58I IgG4 (antibody, V domains shown, also called anti-IL33 10C12.38.H6.87Y.58I IgG4) VH: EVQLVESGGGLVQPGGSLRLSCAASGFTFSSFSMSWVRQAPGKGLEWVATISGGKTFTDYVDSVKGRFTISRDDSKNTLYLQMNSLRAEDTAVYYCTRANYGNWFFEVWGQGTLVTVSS VL: EIVLTQSPATLSLSPGERATLSCRASESVAKYGLSLLNWFQQKPGQPPRLLIFAASNRGSGIPARFSGSGSGTDFTLTISSLEPEDFAVYYCQQSKEVPFTFGQGTKVEIKR', '%', 92),
  ('H4H9640P (antibody, IgG4, V domains shown, also called RG6) VH: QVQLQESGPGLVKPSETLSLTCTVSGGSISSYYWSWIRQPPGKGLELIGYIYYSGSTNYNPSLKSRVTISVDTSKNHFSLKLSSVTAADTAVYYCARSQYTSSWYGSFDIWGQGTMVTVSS VL: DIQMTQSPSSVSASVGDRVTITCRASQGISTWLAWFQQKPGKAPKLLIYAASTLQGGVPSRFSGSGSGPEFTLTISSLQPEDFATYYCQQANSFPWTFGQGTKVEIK', '%', 80),
  ('H4H9633P (antibody, IgG4, V domains shown, also called RG5) VH: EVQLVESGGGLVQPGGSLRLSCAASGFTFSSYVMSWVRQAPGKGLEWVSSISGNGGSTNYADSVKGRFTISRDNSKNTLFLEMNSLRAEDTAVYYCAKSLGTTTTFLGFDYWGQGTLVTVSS VL: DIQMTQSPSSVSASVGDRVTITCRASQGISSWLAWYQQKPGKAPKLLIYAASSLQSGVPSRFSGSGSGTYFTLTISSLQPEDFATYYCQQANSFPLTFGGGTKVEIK', '%', 68);
